Attribution: paper PMC7531004

System: P388 mouse leukemia cells
Conditions: 92 h
Where a SMILES comes first, the peptide text is derived from it. [ ]: non-standard residue; d: D form. The star is where a group is joined. NHCH2CH2OH = OCCN*; For = O=C*
cell viability/% values by entry
experimental readout: cell viability/% (%)

CC(C)C[C@@H](NC(=O)[C@H](C)NC(=O)CNC(=O)[C@@H](NC=O)C(C)C)C(=O)N[C@@H](C)C(=O)N[C@H](CC(C)C)C(=O)N[C@H](C(=O)N[C@H](CC(C)C)C(=O)N[C@@H](Cc1c[nH]c2ccccc12)C(=O)N[C@H](CC(C)C)C(=O)N[C@@H](Cc1c[nH]c2ccccc12)C(=O)N[C@@H](C(=O)N[C@@H](Cc1c[nH]c2ccccc12)C(=O)N[C@@H](C(=O)N[C@@H](Cc1c[nH]c2ccccc12)C(=O)NCCO)C(C)C)C(C)C)C(C)C [compound 2718] (For-VGA[dL]A[dL]V[dL]W[dL]W[dV]W[dV]W-NHCH2CH2OH) : 0.3
CC(C)C[C@@H](NC(=O)[C@H](Cc1c[nH]c2ccccc12)NC(=O)[C@@H](CC(C)C)NC(=O)[C@H](Cc1c[nH]c2ccccc12)NC(=O)[C@H](NC(=O)[C@H](Cc1c[nH]c2ccccc12)NC(=O)[C@H](NC(=O)[C@@H](NC(=O)[C@H](NC(=O)[C@H](C)NC(=O)[C@H](NC(=O)[C@H](C)NC(=O)CNC(=O)[C@@H](NC=O)C(C)C)C(C)C)C(C)C)C(C)C)C(C)C)C(C)C)C(=O)N[C@@H](Cc1c[nH]c2ccccc12)C(=O)NCCO [compound 10649] (For-VGA[dV]A[dV]V[dV]W[dV]W[dL]W[dL]W-NHCH2CH2OH) : 100.0
CC(C)C[C@@H](NC(=O)[C@H](Cc1c[nH]c2ccccc12)NC(=O)[C@@H](CC(C)C)NC(=O)[C@H](Cc1c[nH]c2ccccc12)NC(=O)[C@H](NC(=O)[C@H](Cc1c[nH]c2ccccc12)NC(=O)[C@@H](CC(C)C)NC(=O)[C@@H](NC(=O)[C@H](NC(=O)[C@H](C)NC(=O)[C@H](NC(=O)[C@H](C)NC(=O)CNC(=O)[C@@H](NC=O)C(C)C)C(C)C)C(C)C)C(C)C)C(C)C)C(=O)N[C@@H](Cc1c[nH]c2ccccc12)C(=O)NCCO [compound 10661] (For-VGA[dV]A[dV]V[dL]W[dV]W[dL]W[dL]W-NHCH2CH2OH) : 39.9
CC(C)C[C@@H](NC(=O)[C@H](C)NC(=O)[C@H](NC(=O)[C@H](C)NC(=O)CNC(=O)[C@@H](NC=O)C(C)C)[C@H](C)O)C(=O)N[C@H](C(=O)N[C@H](CC(C)C)C(=O)N[C@@H](Cc1c[nH]c2ccccc12)C(=O)N[C@@H](C(=O)N[C@@H](Cc1c[nH]c2ccccc12)C(=O)N[C@H](CC(C)C)C(=O)N[C@@H](Cc1c[nH]c2ccccc12)C(=O)N[C@@H](C(=O)N[C@@H](Cc1c[nH]c2ccccc12)C(=O)NCCO)C(C)C)[C@H](C)O)C(C)C [compound 1284] (For-VGA[dT]A[dL]V[dL]W[dT]W[dL]W[dV]W-NHCH2CH2OH) : 71.2
